Source of measurements: ChEMBL document CHEMBL1134326

test system: BC; assay: Cytotoxicity against BC cells.; type: functional, cell-based; details: Homo sapiens
Exercise: state measured IC50 for each of the compounds provided.

Prompt: Report IC50 for CC1CCC2C(CC3(Cc4cccc(F)c4)C(=O)OC4OC5(C)CCC6C(C)CCC3C46OO5)C(=O)OC3OC4(C)CCC1C32OO4 (centres undefined) please.
Completion: 3500 nM

Prompt: Further, for C[C@@H]1CC[C@H]2[C@H](CCCCCCC[C@@H]3C(=O)O[C@@H]4O[C@@]5(C)CC[C@H]6[C@H](C)CC[C@@H]3[C@@]46OO5)C(=O)O[C@@H]3O[C@@]4(C)CC[C@@H]1[C@]32OO4 ?
Completion: 1100 nM

Prompt: Further, for C[C@@H]1CC[C@H]2[C@H](Cc3cccc(F)c3)C(=O)O[C@@H]3O[C@]4(C)CC[C@@H]1[C@]32OO4 ?
Completion: 41000 nM

Prompt: Further, for CC1CCC2C(CC3(CCCCc4ccccc4)C(=O)OC4OC5(C)CCC6C(C)CCC3C46OO5)C(=O)OC3OC4(C)CCC1C32OO4 (centres undefined) ?
Completion: 1200 nM
